Target: unrelated Fc-fused recombinant protein (negative control)
Assay: ELISA, bacterial lysate on plate-bound antigen, luminescence
# ELISA Fc Control (RLU) annotations
Respond with the bare value in RLU.

Solved cases below.
binder	unit.abbrev	numeric.value
ISOP120HR5P1A3 (designed binder, not shown: small tags and cut ends, FN3 domain (Centyrin); tested as E. coli lysate) LPAPKNLVVSRVTEDSARLSWTAPDAAFDSFEIYYAEFGYYGEAIVLTVPGSERSYDLTGLKPGTEYTVTIYGVKGGWYSTPLSAIFTT	RLU	560
ISOP120BR5P1F2 (designed binder, not shown: small tags and cut ends, FN3 domain (Centyrin); tested as E. coli lysate) LPAPKNLVVSRVTEDSARLSWTFHPTFEGFDSFLIQYQESEKVGEAIVLTVPGSERSYDLTGLKPGTEYTVSIYGVKWYAGIGYPVSNPLSAIFTT	RLU	400

Next binder, ELISA Fc Control (RLU) to be filled in.
Output ELISA Fc Control (RLU) of ISOP120FR5P1F8 (designed binder, not shown: small tags and cut ends) LPAPKNLVVSRVTEDSARLSWTAPDAAFDSFIIRYLEDISYGEAIVLTVPGSERSYDLTGLKPGTEYHVGIEGVKGGNVSWPLSAIFTT
240

Taken from patent US20220259289A1.
